test: Liver Microsome Stability Assay (rat); details: rat liver microsomes, with NADPH, 1.0 uM compound
Returns Condition met if the recorded Liver Microsome Stability (Multiple Species): Rat - % Remaining after 30 min w/NADPH is greater than or equal to 2%, and Condition not met otherwise.

1) CC(=O)N1CCC(Oc2ccc(N3CCC[C@@H]3c3csc(NC(=O)c4cccn4Cc4ccnc(F)c4)n3)cc2)C(F)C1 (some centres unmarked) [Compound A108] = Condition met
2) O=C(Nc1nc(/C=C/c2ccncn2)cs1)c1cccn1Cc1ccncc1 [Compound B44] = Condition not met
3) Cc1ccc(N2CCC[C@@H]2c2csc(NC(=O)c3cccn3Cc3ccncc3)n2)nc1 [Compound E62] = Condition met

Challenge: Determine whether measured Liver Microsome Stability (Multiple Species): Rat - % Remaining after 30 min w/NADPH meets or exceeds 2% for O=C(Nc1nc([C@H]2CCCN2c2ccc(F)cc2)cs1)c1cccn1Cc1ccncc1 [Compound A25]
Response given: Condition not met

Challenge: Determine whether measured Liver Microsome Stability (Multiple Species): Rat - % Remaining after 30 min w/NADPH meets or exceeds 2% for C[C@@H](N)c1ccc(N2CCC[C@@H]2c2csc(NC(=O)c3cccn3Cc3ccncc3)n2)cc1 [Compound A67]
Response given: Condition met

Challenge: Determine whether measured Liver Microsome Stability (Multiple Species): Rat - % Remaining after 30 min w/NADPH meets or exceeds 2% for O=C(Nc1nc(/C=C/c2cn3ccccc3n2)cs1)c1cccn1Cc1ccncc1 [Compound B50]
Response given: Condition not met

Challenge: Determine whether measured Liver Microsome Stability (Multiple Species): Rat - % Remaining after 30 min w/NADPH meets or exceeds 2% for CN(C)C(=O)CCCn1cccc1C(=O)Nc1nc([C@H]2CCCN2c2ccccc2)cs1 [Compound C61]
Response given: Condition met

Challenge: Determine whether measured Liver Microsome Stability (Multiple Species): Rat - % Remaining after 30 min w/NADPH meets or exceeds 2% for NC(=O)c1ccc(N2CCC[C@@H]2c2csc(NC(=O)c3cccn3Cc3ccnc(F)c3)n2)cc1 [Compound A65]
Response given: Condition not met

Hey, just so you know, these numbers are from patent US20230286973A1.
